Molecular target: CDK7 (Homo sapiens, UniProt P50613)
Sequence (P50613 whole entry): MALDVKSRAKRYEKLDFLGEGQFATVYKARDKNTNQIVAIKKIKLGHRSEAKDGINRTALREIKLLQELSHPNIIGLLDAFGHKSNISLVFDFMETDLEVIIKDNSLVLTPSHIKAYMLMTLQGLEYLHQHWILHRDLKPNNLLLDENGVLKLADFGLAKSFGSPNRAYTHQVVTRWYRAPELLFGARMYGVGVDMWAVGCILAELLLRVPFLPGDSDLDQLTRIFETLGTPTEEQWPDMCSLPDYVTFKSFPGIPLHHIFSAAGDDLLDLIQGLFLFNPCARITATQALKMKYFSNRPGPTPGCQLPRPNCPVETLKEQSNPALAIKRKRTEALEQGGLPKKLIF
Assay: NanoBRET live-cell target engagement, NanoLuc-CDK7 in HEK-293
Assay type: binding
Details: 10µM; average of experiments
READOUT TYPE: CDK7 Inhibition at 10µM (%)
One number for each entry, in %.

Looking up O=C1NCCc2[nH]c(-c3ccncc3)cc21 [PHA-767491] , I found its CDK7 Inhibition at 10µM (%) recorded as 26.3

Looking up O=C1NC(=NCc2cccs2)S/C1=C\c1ccc2ncccc2c1 [RO-3306] , I found its CDK7 Inhibition at 10µM (%) recorded as 57.8

Looking up CN(C)C/C=C/C(=O)Nc1ccc(C(=O)Nc2cccc(Nc3ncc(Cl)c(-c4c[nH]c5ccccc45)n3)c2)cc1 [THZ1] , I found its CDK7 Inhibition at 10µM (%) recorded as 83.9

# evaluate next
Looking up Cc1c(Br)c(Br)c2c3c1nc(N1CCNCC1)n3CCC2.Cl [SEL 120-34A] , I found its CDK7 Inhibition at 10µM (%) recorded as 37.0
